# TEST_DETAILS: Inhibition of [125]BH-CCK8 binding to guinea pig cortex CCKBR by radioligand binding assay
# Type: tissue-based, Cavia porcellus
Peptide text beside a SMILES is read from it. * marks the point of attachment. Boc = CC(C)(C)OC(=O)*
Task for the reader: assign each of the following compounds its reported IC50.

* CSCC[C@H](NC(=O)[C@H](Cc1c[nH]c2ccccc12)NC(=O)OC(C)(C)C)C(=O)N[C@@H](CC(=O)O)C(=O)N[C@@H](Cc1ccccc1)C(N)=O | 25 nM

Next item in the queue.
Name the recorded IC50 of the item CC(C)C[C@H](NC(=O)OC(C)(C)C)C(=O)NCC(=O)N[C@@H](Cc1c[nH]c2ccccc12)C(=O)N[C@@H](CC(C)C)C(=O)N[C@@H](CC(=O)O)C(=O)N[C@@H](Cc1ccccc1)C(N)=O (Boc-LGWLDF-NH2) in your answer.
54 nM

====

# TEST_DETAILS: clinical
# MEASUREMENT_CONDITIONS: human
OBSERVABLE: half-life
// unit must come after the numeric part

Name the recorded half-life of the item Cc1nnc2n1-c1ccc(Cl)cc1C(c1ccccc1)=NC2 in your answer.
6.3 h

====

# System: Poly(dA-dT)oligonucleotide
# TEST_DETAILS: Binding affinity to poly (dA-dT) (unknown origin) by ethidium displacement assay
# Assay type: nucleic-acid assay
OBSERVABLE: Kapp

* CN(C)CCCNC(=O)c1cc(NC(=O)c2cc(/C=C/c3cc([N+](=O)[O-])cn3C)cn2C)cn1C | 16.9 10^5/M

List reported Kapp for each of these molecules:
1. Cn1cc(NC(=O)c2cc(NC(=O)c3cc(NC=O)cn3C)cn2C)cc1C(=O)NCCC(=N)N
2. CN(C)CCCNC(=O)c1cc(NC(=O)c2cc(NC(=O)c3cc(NC=O)cn3C)cn2C)cn1C
3. CN(C)CCCNC(=O)c1cc(NC(=O)c2cc(NC(=O)c3cc([N+](=O)[O-])cn3C)cn2C)cn1C

["345 10^5/M", "150 10^5/M", "8.7 10^5/M"]

====

Task for the reader: assign each of the following compounds its reported IC50.
# TARGET_SYSTEM: Matrilysin (Homo sapiens, UniProt P09237)
# Sequence (P09237 whole entry): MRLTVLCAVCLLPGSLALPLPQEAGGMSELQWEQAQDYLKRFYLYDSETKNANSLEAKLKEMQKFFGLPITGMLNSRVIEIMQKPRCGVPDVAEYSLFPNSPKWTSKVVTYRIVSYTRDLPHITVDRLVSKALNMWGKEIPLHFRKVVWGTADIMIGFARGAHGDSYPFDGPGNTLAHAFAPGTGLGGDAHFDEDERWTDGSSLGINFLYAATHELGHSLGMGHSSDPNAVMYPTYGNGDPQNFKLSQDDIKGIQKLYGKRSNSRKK
One number for each entry, in nM.

• C=CC[C@H](C(=O)NO)[C@@H](CC(C)C)C(=O)N[C@@H](Cc1ccc2c(c1)CCC2)C(=O)NC = 11

Name the recorded IC50 of the item C=CC[C@H](C(=O)NO)[C@@H](CC(C)C)C(=O)N[C@H](C(=O)NC)C(C)(C)C in your answer.
11

====

# TARGET_SYSTEM: D(2) dopamine receptor (Bos taurus)
# TEST_DETAILS: Modulation of [3H]Spiroperidol/N-Propylnorapomorphine binding to dopamine D2 receptor in bovine striatal membranes incubated for 1 hr in presence of Gpp(NH)p by Cheng-Prusoff analysis
# Assay type: cell membranes
# MEASUREMENT_CONDITIONS: Striatum, Membrane, filed as modulator
OBSERVABLE: KiH (nM)
Give bare numbers, in nM.

Past entries and their recorded results:
* CC(C)C[C@@H](C(=O)NCC(N)=O)N1CC(=O)N2CCC[C@H]2C1=O | 0.12
* NC(=O)CN1CC[C@@H](N2CC(=O)N3CCC[C@H]3C2=O)C1=O | 0.19
* NC(=O)[C@H]1CS[C@@H]2C[C@@H](N3CC(=O)N4CCC[C@H]4C3=O)C(=O)N12 | 0.14

Next item in the queue.
Name the recorded KiH of the item CC(C)C[C@H](NC[C@@H]1CCCN1)C(=O)NCC(N)=O in your answer.
0.13

====

# TEST_DETAILS: Oral bioavailability in rat at 30 mg/kg
# Format: ADME, organism-based
# MEASUREMENT_CONDITIONS: in vivo
OBSERVABLE: bioavailability (%)
Answers are plain numbers, in %.

Name the recorded bioavailability of the item C=CC[C@H](C(=O)NO)[C@@H](CC(C)C)C(=O)N[C@@H](Cc1ccc2c(c1)CCC2)C(=O)NC in your answer.
0

====

# TARGET_SYSTEM: D(2) dopamine receptor (Bos taurus) (UniProt P20288)
# Sequence (P20288 whole entry): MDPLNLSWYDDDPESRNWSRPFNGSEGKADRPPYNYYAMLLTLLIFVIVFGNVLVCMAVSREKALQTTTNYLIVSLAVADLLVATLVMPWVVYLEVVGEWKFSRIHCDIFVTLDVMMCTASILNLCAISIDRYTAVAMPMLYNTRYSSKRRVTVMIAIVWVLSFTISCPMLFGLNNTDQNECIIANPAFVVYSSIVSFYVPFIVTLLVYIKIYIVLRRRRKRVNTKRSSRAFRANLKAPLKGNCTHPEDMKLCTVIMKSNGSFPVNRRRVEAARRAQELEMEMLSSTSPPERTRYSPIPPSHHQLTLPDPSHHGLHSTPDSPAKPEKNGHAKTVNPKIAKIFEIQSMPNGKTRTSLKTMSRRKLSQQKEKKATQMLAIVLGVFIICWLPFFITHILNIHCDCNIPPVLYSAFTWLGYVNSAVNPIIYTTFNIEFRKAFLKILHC
# TEST_DETAILS: Modulation of [3H]Spiroperidol/N-Propylnorapomorphine binding to dopamine D2 receptor in bovine striatal membranes incubated for 1 hr in presence of Gpp(NH)p by Cheng-Prusoff analysis
# Assay type: cell membranes
# MEASUREMENT_CONDITIONS: Striatum, Membrane, filed as modulator
Task for the reader: assign each of the following compounds its reported KiL.
// unit must come after the numeric part

- CC(C)C[C@@H](C(=O)NCC(N)=O)N1CC(=O)N2CCC[C@H]2C1=O: 172 nM
- NC(=O)[C@H]1CS[C@@H]2C[C@@H](N3CC(=O)N4CCC[C@H]4C3=O)C(=O)N12: 183 nM
- CC(C)C[C@H](NC[C@@H]1CCCN1)C(=O)NCC(N)=O: 60 nM

Next item in the queue.
GET KiL | system: D(2) dopamine receptor (Bos taurus) (UniProt P20288) | item: NC(=O)CN1CC[C@@H](N2CC(=O)N3CCC[C@H]3C2=O)C1=O
50 nM

====

# System: Poly(dG-dC)oligonucleotide
# TEST_DETAILS: Binding affinity to poly (dG-dC) (unknown origin) by ethidium displacement assay
# Format: nucleic-acid assay
Task for the reader: assign each of the following compounds its reported Kapp.

Past entries and their recorded results:
- CN(C)CCCNC(=O)c1cc(NC(=O)c2cc(NC(=O)c3cc(NC=O)cn3C)cn2C)cn1C: 0.9 10^5/M
- CN(C)CCCNC(=O)c1cc(NC(=O)c2cc(/C=C/c3cc([N+](=O)[O-])cn3C)cn2C)cn1C: 7.4 10^5/M
- CN(C)CCCNC(=O)c1cc(NC(=O)c2cc(NC(=O)c3cc([N+](=O)[O-])cn3C)cn2C)cn1C: 3.5 10^5/M

Next item in the queue.
Name the recorded Kapp of the item Cn1cc(NC(=O)c2cc(NC(=O)c3cc(NC=O)cn3C)cn2C)cc1C(=O)NCCC(=N)N in your answer.
1.3 10^5/M

====

Task for the reader: assign each of the following compounds its reported pIC50.
# TARGET_SYSTEM: Interstitial collagenase (Homo sapiens, UniProt P03956)
# Sequence (P03956 whole entry): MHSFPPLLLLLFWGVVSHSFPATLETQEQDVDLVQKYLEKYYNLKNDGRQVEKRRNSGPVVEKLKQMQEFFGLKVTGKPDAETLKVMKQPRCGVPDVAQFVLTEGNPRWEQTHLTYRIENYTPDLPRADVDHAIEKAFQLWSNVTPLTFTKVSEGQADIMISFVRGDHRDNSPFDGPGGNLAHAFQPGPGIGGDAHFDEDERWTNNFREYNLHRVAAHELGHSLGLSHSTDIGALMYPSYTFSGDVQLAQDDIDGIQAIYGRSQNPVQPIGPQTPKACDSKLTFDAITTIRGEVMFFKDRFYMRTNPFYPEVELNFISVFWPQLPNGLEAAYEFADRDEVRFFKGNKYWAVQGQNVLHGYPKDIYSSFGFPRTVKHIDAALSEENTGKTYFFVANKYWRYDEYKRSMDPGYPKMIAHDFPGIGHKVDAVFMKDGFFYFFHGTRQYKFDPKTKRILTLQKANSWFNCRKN
# TEST_DETAILS: Inhibition of PMA-induced human skin fibroblast derived MMP1 by fluorometric assay
Answers are plain numbers, as −log10 of the molar value.

- C=CC[C@H](C(=O)NO)[C@@H](CC(C)C)C(=O)N[C@H](C(=O)NC)C(C)(C)C: 8.96

Name the recorded pIC50 of the item C=CC[C@H](C(=O)NO)[C@@H](CC(C)C)C(=O)N[C@@H](Cc1ccc2c(c1)CCC2)C(=O)NC in your answer.
8.66

====

# TEST_DETAILS: Half-life in Sprague-Dawley rat plasma at 50 uM measured by LC-MS/MS analysis
# Assay type: ADME, cell-free
OBSERVABLE: half-life at 50 µM (h)
Answers are plain numbers, in h.

Name the recorded half-life at 50 µM of the item CC(C)C[C@H](NC(=O)[C@H](Cc1ccccc1)NC(=O)CNC(=O)C/C=C(\F)[C@@H](N)Cc1ccc(O)cc1)C(=O)O in your answer.
4

====

# Tested on: CAKI-2
# TEST_DETAILS: Cytotoxicity against human Caki-2 cells incubated for 96 hrs by MTT assay
# Type: functional, cell-based
# MEASUREMENT_CONDITIONS: CAKI-2, 96 h
OBSERVABLE: IC50

- CCCCCCCCCCCCCC(=O)N[C@@H](CO)[C@H](O)c1ccc([N+](=O)[O-])cc1: 107 µM

List reported IC50 for each of these compounds:
1. CCCCCCCCCCCCNC(=O)N[C@@H](CO)[C@H](O)c1ccc([N+](=O)[O-])cc1
2. CCCCCCCCCCCCCCCCS(=O)(=O)N[C@@H](CO)[C@H](O)/C=C/c1ccc(Cl)cc1

80 µM
103 µM

====

# Tested on: L1210
# TEST_DETAILS: Antiproliferative activity against mouse L1210 cells incubated for 48 hrs by Coulter counter method
# Assay type: functional, cell-based
# MEASUREMENT_CONDITIONS: L1210, 48 h
OBSERVABLE: IC50 (µM)
Give bare numbers, in µM.

Past entries and their recorded results:
* CS(=O)(=O)c1ccc(-c2cn(-c3ccc(Cl)c(-c4ccccn4)c3)nn2)c(Cl)c1 | 82
* CS(=O)(=O)c1ccc(C(=O)Nc2ccc(Cl)c(-c3ccccn3)c2)c(Cl)c1 | 49

Next item in the queue.
Name the recorded IC50 of the item COC(=O)c1ccc(-c2cn(-c3cccc(-c4ccccc4)c3)nn2)cc1 in your answer.
1.1

Measured values drawn from ChEMBL document CHEMBL4732045 for this set.
